Entry source: patent US20100260765A1

Catalogue of FACS Geometric Mean Fluorescence readings, one per entry.
# target: T1, cynomolgus KDR (cynomolgus monkey, UniProt A0A2K5VE63 20-1356)
# T1 construct: whole, on cells; also called Cyno KDR
# T1 sequence (A0A2K5VE63 entry or part of it): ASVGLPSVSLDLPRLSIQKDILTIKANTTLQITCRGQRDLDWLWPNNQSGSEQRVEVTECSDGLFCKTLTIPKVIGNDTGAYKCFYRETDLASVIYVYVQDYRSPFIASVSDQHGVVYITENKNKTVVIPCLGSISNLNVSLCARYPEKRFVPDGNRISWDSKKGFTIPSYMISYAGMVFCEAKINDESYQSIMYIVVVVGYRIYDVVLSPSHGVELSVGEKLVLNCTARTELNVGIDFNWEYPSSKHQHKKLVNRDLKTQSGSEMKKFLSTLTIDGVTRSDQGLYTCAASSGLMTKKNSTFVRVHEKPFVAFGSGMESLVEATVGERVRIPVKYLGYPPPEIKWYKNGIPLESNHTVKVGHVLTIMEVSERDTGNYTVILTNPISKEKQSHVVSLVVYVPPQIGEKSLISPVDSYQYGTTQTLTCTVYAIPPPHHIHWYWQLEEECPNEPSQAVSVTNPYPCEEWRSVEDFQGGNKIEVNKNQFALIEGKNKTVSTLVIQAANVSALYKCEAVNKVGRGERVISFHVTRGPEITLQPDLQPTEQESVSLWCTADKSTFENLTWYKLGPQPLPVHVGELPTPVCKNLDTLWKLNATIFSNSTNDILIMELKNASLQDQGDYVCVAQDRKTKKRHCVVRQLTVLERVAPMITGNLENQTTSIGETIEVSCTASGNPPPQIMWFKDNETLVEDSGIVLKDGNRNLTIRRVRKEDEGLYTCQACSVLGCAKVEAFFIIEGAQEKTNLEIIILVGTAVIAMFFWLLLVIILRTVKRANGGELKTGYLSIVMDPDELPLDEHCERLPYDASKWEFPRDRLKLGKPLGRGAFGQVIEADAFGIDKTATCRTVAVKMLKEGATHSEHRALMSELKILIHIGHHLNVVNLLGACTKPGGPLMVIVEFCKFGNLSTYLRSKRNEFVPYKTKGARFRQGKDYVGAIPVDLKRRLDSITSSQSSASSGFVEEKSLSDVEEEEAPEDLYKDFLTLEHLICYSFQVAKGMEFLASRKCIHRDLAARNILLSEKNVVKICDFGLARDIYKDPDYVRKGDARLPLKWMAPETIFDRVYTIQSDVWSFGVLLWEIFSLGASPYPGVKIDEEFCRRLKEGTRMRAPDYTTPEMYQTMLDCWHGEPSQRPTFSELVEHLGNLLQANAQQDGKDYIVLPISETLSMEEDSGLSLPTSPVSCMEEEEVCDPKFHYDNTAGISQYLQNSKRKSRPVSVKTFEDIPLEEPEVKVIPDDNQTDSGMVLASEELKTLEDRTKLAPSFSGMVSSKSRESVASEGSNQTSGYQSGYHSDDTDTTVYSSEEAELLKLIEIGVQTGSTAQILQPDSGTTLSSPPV
# protocol.text: FACS on Cyno KDR/293T transfectants, antibody 5 ug/mL
# Experimental: The binding of purified antibodies to cell-bound cynomolgus KDR (with parental cells as negative control) was tested by FACS analysis in this assay. Cynomolgus KDR was cloned in 3 pieces. One piece was PCR amplified from cynomolgus lung cDNA, and the remaining two pieces were PCR amplified from cynomolgus kidney cDNA. The three PCR products were inserted into pCR3.1 Bid vector. […] Binding between cynomolgus KDR and purified antibody was detected by FACS analysis.
quantity.kind: FACS Geometric Mean Fluorescence

>>> result("22B8 (antibody, V domains shown, Fully human monoclonal antibody from a XenoMouse hybridoma (IgG2 or IgG4 strain), purified) VH: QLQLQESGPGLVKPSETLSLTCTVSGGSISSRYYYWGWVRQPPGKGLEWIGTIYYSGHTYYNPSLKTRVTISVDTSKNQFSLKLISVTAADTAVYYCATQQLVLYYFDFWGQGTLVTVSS VL: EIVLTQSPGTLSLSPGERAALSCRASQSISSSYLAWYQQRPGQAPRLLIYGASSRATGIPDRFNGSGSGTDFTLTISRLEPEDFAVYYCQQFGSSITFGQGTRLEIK")
103
>>> result("33B1 (antibody, V domains shown, Fully human monoclonal antibody from a XenoMouse hybridoma (IgG2 or IgG4 strain), purified) VH: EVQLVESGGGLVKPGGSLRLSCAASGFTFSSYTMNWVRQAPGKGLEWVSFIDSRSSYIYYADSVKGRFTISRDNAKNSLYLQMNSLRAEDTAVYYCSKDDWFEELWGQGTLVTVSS VL: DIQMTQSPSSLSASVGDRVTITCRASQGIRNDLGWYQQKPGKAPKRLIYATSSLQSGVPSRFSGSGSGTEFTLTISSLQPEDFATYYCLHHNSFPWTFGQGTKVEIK")
108
>>> result("33C3 (antibody, V domains shown, Fully human monoclonal antibody from a XenoMouse hybridoma (IgG2 or IgG4 strain), purified) VH: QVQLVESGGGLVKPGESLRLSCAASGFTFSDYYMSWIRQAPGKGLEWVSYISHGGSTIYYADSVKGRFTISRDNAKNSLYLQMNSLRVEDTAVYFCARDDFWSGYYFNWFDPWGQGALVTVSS VL: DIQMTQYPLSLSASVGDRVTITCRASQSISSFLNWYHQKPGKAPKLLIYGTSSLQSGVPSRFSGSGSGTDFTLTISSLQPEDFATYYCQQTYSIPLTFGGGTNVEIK")
108
